Target: T1, murine HVEM (murine, UniProt Q80WM9 39-206, limits assumed); further: test concentration or dose not given here
T1 construct: also called Mouse
T1 sequence (looked up): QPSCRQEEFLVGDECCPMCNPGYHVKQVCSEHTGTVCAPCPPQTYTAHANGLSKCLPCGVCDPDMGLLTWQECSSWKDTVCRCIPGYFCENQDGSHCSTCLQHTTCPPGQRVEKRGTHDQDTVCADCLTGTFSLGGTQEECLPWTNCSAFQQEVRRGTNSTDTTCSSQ
Experiment: ELISA

{"binder": "Ab_021 (H5S14-29A20A) (antibody, V domains shown, also called Ab_21) VH: EVQLQQSGPELVKPGASVKMSCKASGYTFTSYVMHWVKQKPGQGLEWIGYINPYNDGTKYNEKFKGKATLTSDKSSSTAYMELSSLTSEDSAVYYCARGIITTVVEPILYAMDYWGQGTSVTVSS VL: NIVLTQSPASLAVSLGQRATISCRASESVDSYGNSFMHWYQQKPGQPPKLLIYLASNLESGVPARFSGSGSRTDFTLTIDPVEADDAATYYCQQNNEDPYTFGGGTKLEIK", "ELISA signal": 0.042}
{"binder": "Ab_005 (H5S14-4A4A) (antibody, V domains shown, also called Ab_5) VH: EVQLQQSGPELVKPGASVKISCKTSGYTFTEYTMHWVKQSHGKSLEWIGGINPYNGGTINNQKFKGKATLTVDMSSSTAYMELRSLTSEDSAVYYCAGSVVDRYWYFDVWGAGTTVTVSS VL: QIVLTQSPAIMSASPGEKVTISCSASSSVSYMYWYQQKPGSSPKPWIYRTSNLASGVPARFSGSGSGTSYSLTISSMEAEDAATYYCQQYHSYPLTFGAGTKLELK", "ELISA signal": 0.048}
{"binder": "Ab_028 (H5S15-33A29A) (antibody, V domains shown, also called Ab_28) VH: QVQLKQSGPGLVQPSQSLSITCTVSGFSLTTYGVHWVRQSPGKGLEWLGVIWSGGNTDYNPAFISRLSISKDNSKSQVFFKMNTLQASDTAIYYCARRGYNKGYAMDYWGQGTSFTVSS VL: EIVLTQSPALMTASPGEKVTITCSVSSTISSRNLHWYQQKSEASPKPWIYGTSNLASGVPVRFSGSGSGTSYSLTISSMEAEDAATYYCQQWNSYPLTFGSGTKLEIK", "ELISA signal": 0.05}
{"binder": "Ab_063 (H5S20-4A4A) (antibody, V domains shown, also called Ab_159; Ab_63) VH: EVKLVESGGGLMKPGGSLKLSCAASGFTFSSYAMSWVRQTPETRLEWVASISSGGSTYYPDSVKGRFTISRDNVRNILYLQMSSLRSEDTAMYFCTRGGYGSSYVIWGQGTTLTVSS VL: DIVMSQSPSSLAVSVGEKITMSCKSSQSLLFSSIQKNYLAWYQQKPGQSPKLLVYWASTRESGVPDRFTGSGSGTDFTLTISSVKAEDLAVYYCQQYYSYPFTFGSGTKLEIK", "ELISA signal": 0.043}
{"binder": "Ab_060 (H5S19-8A16A) (antibody, V domains shown, also called Ab_60) VH: QIQLVQSGPELKKPGETVKISCKASGYTFTNFGVNWVKQAPGKGLKWMGWINTYTGEPTYADDFKGRFAFSLETSASTAYLRINNLKNEDTASYFCARSYYANNAYWGQGTTLTVSS VL: QIVLTQSPAIMSASPGEKVTLTCSASSSVDSSYLYWFQQKPGSSPKLWIYGTSNLASGVPARFSGSGSGTSYSLTISSMEAEDAASYFCHQWNSYPWTFGGGTKLEIK", "ELISA signal": 0.044}
{"binder": "Ab_057 (H5S19-5A7A) (antibody, V domains shown, also called Ab_57) VH: DVKLVESGGGLVKPGGSLKLSCAASGFTFSSYTMSWVRQTPEKRLEWVATISSGGSYTYYPDSVKGRFTISRDNAKNTLYLQMSSLKSEDTAMYYCTRGDDYGFDYWGQGTTLTVSS VL: DVLMTQTPLSLPVSLGDQASISCRSSQSIVHSNGNTYLEWYLQKPGQSPKLLIYKVSNRFSGVPDRFSGSGSGTDFTLKISRVEAEDLGVYYCFQGSHVPWTFGGGTKLEIK", "ELISA signal": 0.045}
{"binder": "Ab_014 (H5S14-15A12A) (antibody, V domains shown, also called Ab_14) VH: QVQLKQSGPGLVQPSQSLSITCTVSGFSLTSYGVHWVRQSPGKGLEWLGVIWSGGSTDYNAAFICRLSISKDSSKSQVFFKMNSLQADDTAMYYCARNLGGSWVDYWGQGTSVTVSS VL: ETTVTQSPASLSVATGEKVTIRCITSTDIDDDMNWYQQKPGEPPKLLISEGNTLRPGVPSRFSSSGYGTDFVFTIENTLSEDVADYYCLQSDNMPYTFGGGTKLEIK", "ELISA signal": 0.049}
